Target: T1, PSMA Fab (SEQ ID NOs: 19, 20)
T1 construct: also called Anti-PSMA Fab; 006 PSMA Fab
Assay: clonal phage ELISA, biotinylated PSMA Fab on neutravidin plate, anti-M13 HRP detection;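 also: crude clonal phage supernatants added to wells pretreated with blocking buffer either with or without PSMA antigen, bound phage read after washing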
measured_attribute: Phage binding ELISA signal, Anti-PSMA Fab
The answer should be written as a number, with no unit following it.

Quote Phage binding ELISA signal, Anti-PSMA Fab reported for LEMACRPMWMCQGL (Tested as crude clonal phage supernatant) [Phage-3536] please.
1.66
